- Subject of test: Human DYRK1B (Homo sapiens)
- Construct: purchased Invitrogen PR8350B (former PV4649)
- Sequence (Q9Y463 whole entry): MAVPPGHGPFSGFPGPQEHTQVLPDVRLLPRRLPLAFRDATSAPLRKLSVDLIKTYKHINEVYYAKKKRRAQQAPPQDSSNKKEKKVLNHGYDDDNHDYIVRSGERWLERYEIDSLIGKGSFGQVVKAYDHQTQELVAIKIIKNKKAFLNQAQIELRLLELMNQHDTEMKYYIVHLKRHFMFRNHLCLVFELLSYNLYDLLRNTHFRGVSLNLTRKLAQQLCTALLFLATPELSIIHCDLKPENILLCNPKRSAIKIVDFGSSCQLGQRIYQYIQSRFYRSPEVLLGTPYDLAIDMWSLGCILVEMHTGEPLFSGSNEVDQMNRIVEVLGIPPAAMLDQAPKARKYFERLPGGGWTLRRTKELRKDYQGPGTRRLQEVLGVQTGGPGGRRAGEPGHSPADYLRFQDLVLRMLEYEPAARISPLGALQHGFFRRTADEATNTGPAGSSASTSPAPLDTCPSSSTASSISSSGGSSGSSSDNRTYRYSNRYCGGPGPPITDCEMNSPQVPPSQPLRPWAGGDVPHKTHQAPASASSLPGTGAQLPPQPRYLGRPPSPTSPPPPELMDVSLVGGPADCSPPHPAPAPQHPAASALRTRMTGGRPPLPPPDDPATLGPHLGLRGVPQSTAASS
- Assay overview: DYRK1B Kinase TR-FRET (IMAP-Tb) Assay
- Format: biochemical
- Study conditions: % inhibition at 10 μM test compound concentration, where IC50 not determined
Property: inhibition at 10 µM (%)
Answers are plain numbers, in %.

Could you tell me inhibition at 10 µM for each of these compounds? They are listed below.
1. COc1cc2[nH]c(=O)c(C(=O)Nc3cc(C(=O)NCc4cccs4)ccc3Cl)cc2cn1
2. COc1cc2[nH]c(=O)c(C(=O)Nc3cc(C(=O)NCc4ccccc4Cl)ccc3C)cc2cn1
3. COc1cc2[nH]c(=O)c(C(=O)Nc3cc(C(=O)NCc4ccccc4)ccc3Cl)cc2cn1

A:
[41, 28, 19]

Could you tell me inhibition at 10 µM for each of these compounds? They are listed below.
1. COC(=O)c1ccc(C)c(NC(=O)c2cc3ccc(OC)nc3[nH]c2=O)c1
2. COc1cc2[nH]c(=O)c(C(=O)Nc3cc(C(=O)NCc4cccc(Cl)c4)ccc3C)cc2cn1

A:
1. 47
2. 35

----------
- Subject of test: Human DYRK1B (Homo sapiens)
- Construct: purchased Invitrogen PR8350B (former PV4649)
- Assay overview: DYRK1B Kinase TR-FRET (IMAP-Tb) Assay
- Format: biochemical
- Study conditions: TR-FRET (IMAP-Tb); ATP 70 μM; 37° C., 60 minutes; average of multiple runs; read-out: Enzyme IC50 (μM) DYRK1B
Counter-ions that a name gives are not always drawn.
Property: IC50 (µM)
One number for each entry, in µM.

Sample answers from the record:
>>> df
                                   molecule  meas_value
0  COc1cc2[nH]c(=O)c(C(=O)Nc3cc(C(=O)NC(CCN)c4cccc(Cl)c4)ccc3Cl)cc2cn1 (stereo not shown) [Example 67, hydrochloride]      0.0854
1  COc1ccc2cc(C(=O)Nc3cc(C(=O)NCc4cccc(Cl)c4)ccc3C)c(=O)[nH]c2n1       0.235

Could you tell me IC50 for each of these molecules? They are listed below.
1. COC(=O)c1ccc(Cl)c(NC(=O)c2cc3cnc(N4CCN(C)CC4)cc3[nH]c2=O)c1
2. COc1cc2[nH]c(=O)c(C(=O)Nc3cc(C(=O)NC(CN)c4ccsc4)ccc3C)cc2cn1 (stereo not shown) [Example 59, hydrochloride]
3. COC(=O)c1ccc(C)c(NC(=O)c2cc3cnc(NCC(O)CO)cc3[nH]c2=O)c1 (stereo not shown) [Example 49, hydrochloride]
4. COc1ccc2cc(C(=O)Nc3cc(C(=O)NCc4cccc(Cl)c4)ccc3Cl)c(=O)[nH]c2n1

A:
[0.96, 0.0308, 0.537, 0.047]

----------
- Subject of test: Human DYRK1A (Homo sapiens, UniProt Q13627)
- Construct: purchased Invitrogen PV3997
- Assay overview: DYRK1A Kinase TR-FRET (IMAP-Tb) Assay
- Format: biochemical
- Study conditions: TR-FRET (IMAP-Tb); ATP 70 μM; 37° C., 60 minutes; average of multiple runs; read-out: Enzyme IC50 (μM) DYRK1A
Counter-ions that a name gives are not always drawn.
Property: IC50 (µM)
Numbers only, in µM.

Sample answers from the record:
                                   compound  property  meas_value
0  COC(=O)c1ccc(C)c(NC(=O)c2cc3ccc(OC)nc3[nH]c2=O)c1      IC50       0.125
1  COC(=O)c1ccc(Cl)c(NC(=O)c2cc3cnc(N4CCN(C)CC4)cc3[nH]c2=O)c1      IC50       0.425
2  COc1cc2[nH]c(=O)c(C(=O)Nc3cc(C(=O)NC(CN)c4ccsc4)ccc3C)cc2cn1 (stereo not shown) [Example 59, hydrochloride]      IC50      0.0113
3  COC(=O)c1ccc(C)c(NC(=O)c2cc3cnc(NCC(O)CO)cc3[nH]c2=O)c1 (stereo not shown) [Example 49, hydrochloride]      IC50         0.3
4  COc1cc2[nH]c(=O)c(C(=O)Nc3cc(C(=O)NCc4ccccc4)ccc3C)cc2cn1      IC50        2.15

The record that follows has no IC50 shown yet.
Value of IC50 reported for the compound COc1cc2[nH]c(=O)c(C(=O)Nc3cc(C(=O)NC(CN)c4cccc(Cl)c4)ccc3Cl)cc2cn1 (stereo not shown) [Example 51, hydrochloride] is 0.0198

Values compiled from patent US20120184562A1.
